- Test system: P388 leukemia ip, CD2F1 mice, survival T/C
- Method Description: NCI In Vivo Anticancer Drug Screen. Data for tumor model P388 Leukemia (intraperitoneal) in CD2F1 (CDF1) mice
- Reported Conditions: endpoint: median survival time; dose: 50.0 mg/kg/injection; schedule: Q01DX005 (ip); vehicle: saline with Tween-80; higher = longer survival
Inconclusive results and toxic doses are left out.
Recorded Endpoint: T/C

INSERT INTO results (compound, result_value) VALUES
  ('Clc1c(Br)c(-c2ccccc2)nc2ccccc12', '108 % of control'),
  ('CN1C(=S)NC2C(O)C(O)C(CO)OC21 (configuration not stated)', '97 % of control'),
  ('O=C(NC(Cc1ccc(OC(=O)OCc2ccccc2)cc1)C(=O)O)OCc1ccccc1 (configuration not stated)', '99 % of control'),
  ('FC(F)(F)c1cccc(C(Nc2nncs2)Nc2nncs2)c1', '96 % of control'),
  ('COC(=O)C(C)NC(=O)c1c2nc3c(C(=O)NC(C)C(=O)OC)ccc(C)c3oc-2c(C)c(=O)c1N (configuration not stated)', '89 % of control'),
  ('COc1c(OP2(=S)OCC(C)(C)CO2)cnn(C2CCCCC2)c1=O', '89 % of control'),
  ('Nc1c(Cl)sc2ccccc2c1=O', '91 % of control'),
  ('O=C(NCCCNC(=O)C12CC3CC(CC(C3)C1)C2)C12CC3CC(CC(C3)C1)C2', '98 % of control'),
  ('Clc1cc(Cl)c2c(c1)[nH]c1nc3ccccc3nc12', '96 % of control'),
  ('OC(c1ccccc1)C1(c2ccccc2)CCN(Cc2ccccc2)CC1 (configuration not stated)', '100 % of control'),
  ('CC1(C)Cc2cc3ccccc3nc2-c2ccccc21', '107 % of control'),
  ('CCCC1CCCCN1Cc1ccccc1 (configuration not stated)', '107 % of control'),
  ('COC(=O)/C=C(/Nc1c(Cl)sc2ccccc2c1=O)C(=O)OC', '97 % of control'),
  ('CC(=O)N(C)c1ccc2c(c1)C(=O)c1ccccc1-2', '102 % of control'),
  ('O=c1oc2c(cc1Cl)CCc1ccccc1-2', '104 % of control'),
  ('O=C(O)[C@@H]1c2ccccc2-c2ccccc2[C@H]1C(=O)O', '98 % of control'),
  ('CC(NC(=O)OC(C)(C)C)C(=O)NC(C)C(=O)NC(C)C(=O)Nc1ccc([N+](=O)[O-])cc1 (configuration not stated)', '94 % of control');

* * *

- Test system: P388 leukemia ip, CD2F1 mice, survival T/C
- Method Description: NCI In Vivo Anticancer Drug Screen. Data for tumor model P388 Leukemia (intraperitoneal) in CD2F1 (CDF1) mice
- Reported Conditions: endpoint: median survival time; dose: 120.0 mg/kg/injection; schedule: Q01DX005 (ip); vehicle: saline with Tween-80; higher = longer survival
Toxic doses and inconclusive results are not listed.
Overview of recorded T/C for various compounds
Recorded Endpoint: T/C

INSERT INTO results (substance_smiles, result_value) VALUES
  ('O=C(Nc1c(Cl)cc(Cl)cc1Cl)ON=C1CCCCC1', '102 % of control'),
  ('O=C(Nc1ccc(C(=O)O)c(O)c1)Nc1ccccc1C(F)(F)F', '90 % of control'),
  ('O=C(CCl)Nc1cc2ccccc2oc1=O', '109 % of control'),
  ('CC1=NN(C2=NS(=O)(=O)c3ccccc3N2C)C(=O)C1', '90 % of control'),
  ('O=S(=O)(c1cccc(C(F)(F)F)c1)N(CCCCN(S(=O)(=O)c1cccc(C(F)(F)F)c1)S(=O)(=O)c1cccc(C(F)(F)F)c1)S(=O)(=O)c1cccc(C(F)(F)F)c1', '93 % of control');

* * *

- Tested on: P388 leukemia ip, CD2F1 mice, survival T/C
- Method Description: NCI In Vivo Anticancer Drug Screen. Data for tumor model P388 Leukemia (intraperitoneal) in CD2F1 (CDF1) mice
- Reported Conditions: endpoint: median survival time; dose: 100.0 mg/kg/injection; schedule: Q01DX005 (ip); vehicle: saline with Tween-80; higher = longer survival
- Protocol: The antitumor activity of compounds was measured in mice bearing transplantable tumors. Survival or tumor size were measured and the results are expressed as the measurement made in the treated group (T) divided by the measurement made in the vehicle treated control group (C). The tumor model used in this assay is P388 Leukemia (intraperitoneal) in CD2F1 (CDF1) mice
Toxic doses and inconclusive results are not listed.
Overview of recorded T/C for various molecules
Recorded Endpoint: T/C

INSERT INTO results (molecule, result_value) VALUES
  ('O=C(Nc1nnc(-c2ccccc2)s1)c1cc(=O)c2cc([N+](=O)[O-])ccc2o1', '102 % of control'),
  ('COc1ncnc2c1ncn2C1CCCCO1 (stereo unspecified)', '101 % of control'),
  ('Cc1ccc(C2(O)c3ccccc3N=NN2C)cc1 (stereo unspecified)', '100 % of control'),
  ('S=C=Nc1ccc(-c2csc(Nc3ccnc4cc(Cl)ccc34)n2)cc1', '94 % of control'),
  ('COC(=O)C1CCOCCCOCCCOCCCOCCCOCCCC1=O (stereo unspecified)', '105 % of control'),
  ('O=C1c2c(c(Cl)c3ccccc3c2O)C(=O)C2C3C=CC(C3)C12 (stereo unspecified)', '89 % of control');

* * *

- Test system: P388 leukemia ip, CD2F1 mice, survival T/C
- Method Description: NCI In Vivo Anticancer Drug Screen. Data for tumor model P388 Leukemia (intraperitoneal) in CD2F1 (CDF1) mice
- Reported Conditions: endpoint: median survival time; dose: 100.0 mg/kg/injection; schedule: Q01DX005 (ip); vehicle: saline with Tween-80; higher = longer survival
Toxic doses and inconclusive results are not listed.
Overview of recorded T/C for various molecules
Recorded Endpoint: T/C

INSERT INTO assay_data (molecule, measurement_target, result_value) VALUES
  ('Clc1cc(Cl)c2c(c1)[nH]c1nc3ccccc3nc12', 'P388 leukemia ip, CD2F1 mice, survival T/C', '100 % of control'),
  ('CN(C)CCC(=O)C(=C/C=C/c1ccccc1)C(=O)CCN(C)C', 'P388 leukemia ip, CD2F1 mice, survival T/C', '123 % of control'),
  ('O=C1NC(=O)C2C3OC(C12)C1C2C(=O)NC(=O)C2C31 (stereo not drawn)', 'P388 leukemia ip, CD2F1 mice, survival T/C', '104 % of control'),
  ('CCN(CC)C(=O)c1c(C(=O)OC)c(C)n(NC(N)=O)c1C', 'P388 leukemia ip, CD2F1 mice, survival T/C', '107 % of control'),
  ('O=c1[nH]c2ccccc2nc1N=Nc1ccccc1', 'P388 leukemia ip, CD2F1 mice, survival T/C', '96 % of control'),
  ('Nc1c(Cl)sc2ccccc2c1=O', 'P388 leukemia ip, CD2F1 mice, survival T/C', '91 % of control'),
  ('CN1C(=O)c2ccccc2N=CN1C(=O)Nc1ccccc1', 'P388 leukemia ip, CD2F1 mice, survival T/C', '90 % of control'),
  ('CC(NC(=O)OC(C)(C)C)C(=O)ON1C(=O)CCC1=O (stereo not drawn)', 'P388 leukemia ip, CD2F1 mice, survival T/C', '114 % of control'),
  ('Cc1nc2ccc(O)cc2c(C(=O)O)c1C(=O)O', 'P388 leukemia ip, CD2F1 mice, survival T/C', '96 % of control'),
  ('OCCN(CCO)Cc1cccc2ccccc12', 'P388 leukemia ip, CD2F1 mice, survival T/C', '94 % of control'),
  ('c1ccc2c(c1)C1OC2c2c1ccc1ccccc21 (stereo not drawn)', 'P388 leukemia ip, CD2F1 mice, survival T/C', '90 % of control'),
  ('CN1C(=S)NC2C(O)C(O)C(CO)OC21 (stereo not drawn)', 'P388 leukemia ip, CD2F1 mice, survival T/C', '99 % of control'),
  ('c1ccc(-c2cnc3nc4[nH]c5ccccc5c4nn23)cc1', 'P388 leukemia ip, CD2F1 mice, survival T/C', '92 % of control'),
  ('CCOc1cccc(/C=N/NC(=O)C(N)Cc2ccc(O)cc2)c1O (stereo not drawn)', 'P388 leukemia ip, CD2F1 mice, survival T/C', '99 % of control'),
  ('c1ccc(P(CCNCCP(c2ccccc2)c2ccccc2)c2ccccc2)cc1', 'P388 leukemia ip, CD2F1 mice, survival T/C', '109 % of control'),
  ('O=C1CC2COc3ccc(OCCN4CCCC4)cc3C2=NN1c1ccccc1 (stereo not drawn)', 'P388 leukemia ip, CD2F1 mice, survival T/C', '103 % of control'),
  ('CC(=O)ONC(=O)CSc1nn2cc(-c3ccccc3)nc2s1', 'P388 leukemia ip, CD2F1 mice, survival T/C', '97 % of control'),
  ('Cc1cc(=O)n(-c2ccc(S(N)(=O)=O)cc2)c(C)c1C(=O)O', 'P388 leukemia ip, CD2F1 mice, survival T/C', '96 % of control'),
  ('O=C1OC(c2ccccc2)(c2ccccc2)CC12CC(c1ccccc1)(c1ccccc1)OC2=O', 'P388 leukemia ip, CD2F1 mice, survival T/C', '94 % of control'),
  ('Oc1ccccc1C=NCCC[OH2+].Oc1ccccc1C=NCCC[OH2+].[Cu].[Cu]', 'P388 leukemia ip, CD2F1 mice, survival T/C', '109 % of control'),
  ('COC(=O)C1=C(C)NC(C)=C(C(=O)OC)C1c1ccc(Cl)c([N+](=O)[O-])c1', 'P388 leukemia ip, CD2F1 mice, survival T/C', '96 % of control'),
  ('Cc1nc(-c2ccccc2)nc2c1nc(C(C)C)n2Nc1ccccc1', 'P388 leukemia ip, CD2F1 mice, survival T/C', '98 % of control'),
  ('S=c1nc[nH]c2c1ncn2C1C=CC=CC=C1', 'P388 leukemia ip, CD2F1 mice, survival T/C', '106 % of control'),
  ('O=C(O)[C@@H]1c2ccccc2-c2ccccc2[C@H]1C(=O)O', 'P388 leukemia ip, CD2F1 mice, survival T/C', '95 % of control'),
  ('CN(C)N1C(=O)C(C(=O)Nc2cccc3ccccc23)SC1=S (stereo not drawn)', 'P388 leukemia ip, CD2F1 mice, survival T/C', '99 % of control'),
  ('Cc1nn(C(=O)c2cccnc2)c(-c2ccccc2)c1N=Nc1ccc(S(=O)(=O)Nc2ncccn2)cc1', 'P388 leukemia ip, CD2F1 mice, survival T/C', '88 % of control'),
  ('O=C1c2cc([N+](=O)[O-])cc3cc([N+](=O)[O-])cc(c23)C(=O)N1CCCNCCNCCCN1C(=O)c2cc([N+](=O)[O-])cc3cc([N+](=O)[O-])cc(c23)C1=O', 'P388 leukemia ip, CD2F1 mice, survival T/C', '100 % of control'),
  ('COc1cc(N=Nc2cc(CN(C)C)cc3ncccc23)c(OC)cc1N=Nc1ccc([N+](=O)[O-])cc1', 'P388 leukemia ip, CD2F1 mice, survival T/C', '107 % of control'),
  ('COc1ccc(S(=O)(=O)N/N=C\c2cccc([N+](=O)[O-])c2O)cc1OC', 'P388 leukemia ip, CD2F1 mice, survival T/C', '99 % of control'),
  ('O=C(NCCCNC(=O)C12CC3CC(CC(C3)C1)C2)C12CC3CC(CC(C3)C1)C2', 'P388 leukemia ip, CD2F1 mice, survival T/C', '92 % of control'),
  ('Cc1cc(C)nc(NS(=O)(=O)c2ccc(NC(=S)Nc3ccccc3)cc2)n1', 'P388 leukemia ip, CD2F1 mice, survival T/C', '90 % of control'),
  ('CCOC(=O)c1c(-c2ccccc2)nn2c1COC(=O)C2', 'P388 leukemia ip, CD2F1 mice, survival T/C', '99 % of control'),
  ('Nc1cc(-c2ccc(Cl)cc2)nn1-c1nnc(-c2ccccc2)c(-c2ccccc2)n1', 'P388 leukemia ip, CD2F1 mice, survival T/C', '100 % of control');
